target: cAMP PDE; assay: Phosphodiesterase (PDE) inhibitory activity, cAMP substrate; details: 0.14 μM 14C-labeled cAMP, pH 8.0, 30° C., 20 minutes, crude enzyme from rat brains; read-out: I50 cAMP PDE
For each record, write down the corresponding pIC50.
Recall that pIC50 is obtained by taking minus log10 of the concentration measured in molar.

Recorded pIC50 for Nc1ncnc2c1ncn2C1CC2OC(C(=O)O)([C@@H](O)C(=O)O)C=C2O1 (stereo partly drawn) [Compound No. 144, 2'-deoxygriseolic acid] on cAMP PDE was 6.72

Recorded pIC50 for O=C(O)C(O)C1(C(=O)O)C=C2OC(n3cnc4c(=O)[nH]cnc43)C(O)C2O1 (stereo not drawn) [Compound No. 51, 6-desamino-6-hydroxygriseolic acid] on cAMP PDE was 6.49

Recorded pIC50 for Nc1ncnc2c1nc(Br)n2C1OC23OC(C(=O)O)C(C(=O)O)(OC2[C@H]1O)C3Br (stereo partly drawn) [Compound No. 187] on cAMP PDE was 4.46

Recorded pIC50 for Nc1ncnc2c1ncn2C1OC2=CC(C(=O)O)([C@@H](O)C(=O)O)OC2[C@@H]1N (stereo partly drawn) [Compound No. 248, 2'(S)-amino-2'-deoxygriseolic acid] on cAMP PDE was 5.49

Recorded pIC50 for Nc1ncnc2c1nc(Br)n2C1OC2=CC(C(=O)O)([C@@H](O)C(=O)O)OC2[C@H]1O (stereo partly drawn) [Compound No. 196, 8-bromogriseolic acid] on cAMP PDE was 5.60

Recorded pIC50 for CC(=O)O[C@@H]1C2OC(C(=O)O)([C@@H](OC(C)=O)C(=O)O)C=C2OC1n1cnc2c(N)ncnc21 (stereo partly drawn) [Compound No. 41, O^2',O^7' -diacetylgriseolic acid] on cAMP PDE was 5.03
